Give log10 EC50 for every item shown.
Target: delF508-CFTR (Homo sapiens, UniProt P13569, DEL508-508)
Construct: functional activity of the CFTR channel (Chloride ion transport) in patient derived primary human bronchial epithelial cells
Sequence (P13569 with tags, fused parts or gaps DEL508-508): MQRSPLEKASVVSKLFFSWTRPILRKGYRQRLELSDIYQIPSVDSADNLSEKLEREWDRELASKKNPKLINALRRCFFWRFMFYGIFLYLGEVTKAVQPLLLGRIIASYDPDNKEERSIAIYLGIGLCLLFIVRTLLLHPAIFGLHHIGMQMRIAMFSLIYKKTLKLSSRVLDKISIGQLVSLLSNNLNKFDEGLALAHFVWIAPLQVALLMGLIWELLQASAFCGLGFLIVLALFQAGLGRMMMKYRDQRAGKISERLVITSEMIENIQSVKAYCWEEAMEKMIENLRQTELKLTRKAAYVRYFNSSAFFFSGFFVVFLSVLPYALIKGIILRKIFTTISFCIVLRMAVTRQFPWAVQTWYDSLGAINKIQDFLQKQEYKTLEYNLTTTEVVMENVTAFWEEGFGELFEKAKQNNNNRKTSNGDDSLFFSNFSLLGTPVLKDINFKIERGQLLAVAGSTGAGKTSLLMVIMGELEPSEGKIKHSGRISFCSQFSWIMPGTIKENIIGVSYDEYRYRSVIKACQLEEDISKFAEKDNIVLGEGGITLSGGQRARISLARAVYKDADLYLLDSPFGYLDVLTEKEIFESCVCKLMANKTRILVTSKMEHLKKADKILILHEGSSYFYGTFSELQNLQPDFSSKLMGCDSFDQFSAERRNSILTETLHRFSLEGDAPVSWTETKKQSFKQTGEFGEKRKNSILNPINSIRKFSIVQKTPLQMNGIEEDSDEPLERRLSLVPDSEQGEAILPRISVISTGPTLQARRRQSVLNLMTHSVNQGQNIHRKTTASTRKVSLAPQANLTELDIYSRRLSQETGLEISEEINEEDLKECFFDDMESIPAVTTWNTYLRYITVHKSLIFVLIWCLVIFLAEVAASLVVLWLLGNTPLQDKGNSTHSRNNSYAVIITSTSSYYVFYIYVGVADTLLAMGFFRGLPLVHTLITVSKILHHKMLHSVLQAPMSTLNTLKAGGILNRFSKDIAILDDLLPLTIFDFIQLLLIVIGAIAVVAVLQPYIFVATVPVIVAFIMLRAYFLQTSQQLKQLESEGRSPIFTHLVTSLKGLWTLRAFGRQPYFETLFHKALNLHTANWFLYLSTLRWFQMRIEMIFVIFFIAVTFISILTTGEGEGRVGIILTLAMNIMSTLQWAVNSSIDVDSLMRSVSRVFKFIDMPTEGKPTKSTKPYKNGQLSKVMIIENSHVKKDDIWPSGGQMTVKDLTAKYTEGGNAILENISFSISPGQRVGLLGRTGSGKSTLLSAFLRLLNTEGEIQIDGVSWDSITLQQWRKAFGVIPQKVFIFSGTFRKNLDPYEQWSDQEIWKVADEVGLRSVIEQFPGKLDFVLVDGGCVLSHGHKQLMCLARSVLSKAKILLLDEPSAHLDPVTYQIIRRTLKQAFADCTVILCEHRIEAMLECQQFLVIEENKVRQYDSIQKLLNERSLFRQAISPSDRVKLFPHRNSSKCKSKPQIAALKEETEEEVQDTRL
Assay: Measurement of delF508-CFTR functional activity in primary human bronchial epithelial cells (HBECs) using Multi-Transepithelial Clamp Circuit (MTECC-24) assay
Settings: primary CF HBECs; test compound added 24h before assay, in the presence of potentiator; mean of at least two replicates; read-out: MTECC24 CFHBEC- EC50
Counter-ions that a name gives are not always drawn.
# values: log10(EC50), units nM

The following molecules have reported results that may help.
molecule | test-system | log10 EC50
Cc1ccccc1-c1nc(NS(=O)(=O)c2cccc(N3CCN(CC(N)=O)CC3)n2)ccc1C(F)(F)F [Example 183] | delF508-CFTR (Homo sapiens, UniProt P13569, DEL508-508) | 1.87
Cc1ccccc1-c1nc(NS(=O)(=O)c2cccc(N3CCC4(CCC(CO)[C@H]4N)CC3)n2)ccc1C(F)(F)F (stereo partly shown) [Example 307] | delF508-CFTR (Homo sapiens, UniProt P13569, DEL508-508) | 1.66
Cc1c(F)cccc1-c1nc(NS(=O)(=O)c2cccc(N3CC(C)(O)C3)n2)ccc1C(F)(F)F [Example 215] | delF508-CFTR (Homo sapiens, UniProt P13569, DEL508-508) | 0.67
Cc1ccccc1-c1nc(NS(=O)(=O)c2cccc(N3CCC(N)CC3)n2)ccc1C(F)(F)F [Example 108, Hydrochloride] | delF508-CFTR (Homo sapiens, UniProt P13569, DEL508-508) | 1.74
Cc1ccc(F)cc1-c1nc(NS(=O)(=O)c2cccc(N3CCN4C[C@@H](F)CC4[C@@H]3C)n2)ccc1Cl (stereo partly shown) [Example 135] | delF508-CFTR (Homo sapiens, UniProt P13569, DEL508-508) | 1.11

Please state log10 EC50 for every molecule in the list that follows.
1. Cc1ccccc1-c1nc(NS(=O)(=O)c2cccc(N3CCN[C@H](C)C3)n2)ccc1C(F)(F)F [Example 167, Hydrochloride]
2. Cc1ccccc1-c1nc(NS(=O)(=O)c2cccc(N3CC[C@@H](N)C3)n2)ccc1C(F)(F)F [Example 119, Hydrochloride]

Solution:
1. 1.93
2. 1.74

----------
Give pEC50 for every item shown.
Target: delF508-CFTR (Homo sapiens, UniProt P13569, DEL508-508)
Construct: functional activity of the CFTR channel (Chloride ion transport) in patient derived primary human bronchial epithelial cells
Assay: Measurement of delF508-CFTR functional activity in primary human bronchial epithelial cells (HBECs) using Multi-Transepithelial Clamp Circuit (MTECC-24) assay
Settings: primary CF HBECs; test compound added 24h before assay, in the presence of potentiator; mean of at least two replicates; read-out: MTECC24 CFHBEC- EC50
Counter-ions that a name gives are not always drawn.
Answers are plain numbers, as −log10 of the molar value.

The following compounds have reported results that may help.
compound | pEC50
Cc1ccccc1-c1nc(NS(=O)(=O)c2cccc(N3CC4(C3)OCCC4N)n2)ccc1C(F)(F)F (centres unmarked) | 7.14
Cc1ccc(F)cc1-c1nc(NS(=O)(=O)c2cccc(N3CCC(C)(C(=O)O)CC3)n2)ccc1Cl | 7.66
CO[C@@H]1CNCC[C@H]1Nc1cccc(S(=O)(=O)Nc2ccc(C(F)(F)F)c(-c3ccccc3C)n2)n1 (racemic) [Example 116, Hydrochloride] | 6.97
Cc1ccccc1-c1nc(NS(=O)(=O)c2cccc(N3C[C@H](O)[C@@H](N4CCCC4)C3)n2)ccc1C(F)(F)F | 7.93
Cc1ccccc1-c1nc(NS(=O)(=O)c2ccc(C)c(N)n2)ccc1C(F)(F)F | 7.59

Please state pEC50 for every compound in the list that follows.
1. Cc1ccc(C#N)cc1-c1nc(NS(=O)(=O)c2cccc(N3CC(C)(O)C3)n2)ccc1Cl
2. Cc1ccccc1-c1nc(NS(=O)(=O)c2cccc(N3CCC(C)(C(=O)O)CC3)n2)ccc1Cl
3. Cc1ccc(F)cc1-c1nc(NS(=O)(=O)c2cccc(N3CC(O)(CO)C3)n2)ccc1Cl
4. CCc1ccccc1-c1nc(NS(=O)(=O)c2ccnc(N3CCC(C)(C(=O)O)CC3)c2)ccc1C(F)(F)F
5. Cc1ccc(F)cc1-c1nc(NS(=O)(=O)c2cccc(N3CCNCC3)n2)ccc1C(F)(F)F [Example 152, Hydrochloride]

Solution:
1: 7.35; 2: 7.98; 3: 6.74; 4: 6.88; 5: 7.24

Please state pEC50 for every compound in the list that follows.
1. Cc1cccc(C)c1-c1nc(NS(=O)(=O)c2cccc(O[C@@H]3COC[C@@H]3O)n2)ccc1Cl (racemic)
2. Cc1ccc(C#N)cc1-c1nc(NS(=O)(=O)c2cccc(N3CC(C)(O)C3)n2)ccc1C(F)(F)F
3. Cc1ccccc1-c1nc(NS(=O)(=O)c2cccc(N3CCC[C@H](N)C3)n2)ccc1C(F)(F)F [Example 103, Hydrochloride]
4. Cc1ccccc1-c1nc(NS(=O)(=O)c2cccc(N3CCNC[C@H]3C)n2)ccc1C(F)(F)F [Example 171, Hydrochloride]

Solution:
1: 7.33; 2: 8.03; 3: 7.02; 4: 6.93

----------
Give EC50 for every item shown.
Target: horseradish peroxidase (HRP) tagged delF508-CFTR (Homo sapiens, UniProt P13569, DEL508-508)
Construct: expressed in transfected cells
Sequence (P13569 with tags, fused parts or gaps DEL508-508): as above
Assay: Measurement of delF508-CFTR-HRP surface expression in CFBE41o- cells
Format: cell-based
Details: delF508-CFTR-HRP surface expression, CFBE41o- cells; read-out: DelF508-CFTR-HRP EC50

The following compounds have reported results that may help.
smiles | observed-value
Cc1cccc(C)c1-c1ccc(F)c(NS(=O)(=O)c2cccc(N)n2)n1 | 3550 nM
Cc1c(F)cccc1-c1nc(NS(=O)(=O)c2cccc(N3CC(O)C3)n2)ccc1Cl | 1700 nM

Please state EC50 for every compound in the list that follows.
1. CC1(C(=O)O)CCN(c2cccc(S(=O)(=O)Nc3ccc(C(F)(F)F)c(-c4ccc(F)cc4Cl)n3)n2)CC1
2. CCOC(=O)C1(C)CCN(c2cccc(S(=O)(=O)Nc3ccc(Cl)c(-c4cccc(F)c4C)n3)n2)CC1
3. Cc1ccccc1-c1nc(NS(=O)(=O)c2cccc(N[C@H]3C[C@@H](O)C3)n2)ccc1C(F)(F)F
4. Cc1ccccc1-c1nc(NS(=O)(=O)c2cccc(N3CCN(CC(F)F)CC3)n2)ccc1C(F)(F)F
5. Cc1ccccc1-c1nc(NS(=O)(=O)c2cccc(N3CC[C@H](C(=O)O)C3)n2)ccc1C(F)(F)F

Solution:
1: 3420 nM; 2: 2470 nM; 3: 1590 nM; 4: 1460 nM; 5: 2830 nM

----------
Molecular target: horseradish peroxidase (HRP) tagged delF508-CFTR (Homo sapiens, UniProt P13569, DEL508-508)
Construct: expressed in transfected cells
Test: Measurement of delF508-CFTR-HRP surface expression in CFBE41o- cells;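 on DelF508-CFTR-HRP Amax %: percent efficacy relative to reference corrector lumacaftor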
Type: cell-based
Conditions: delF508-CFTR-HRP surface expression, CFBE41o- cells; read-out: DelF508-CFTR-HRP Amax %
Where a name gives a salt, the structure may show the parent alone.
Label Satisfied when Emax is strictly below 300%; otherwise label Not satisfied.

molecule | answer-label
Cc1ccccc1-c1nc(NS(=O)(=O)c2cccc(N[C@H]3CC[C@H](C(=O)O)CC3)n2)ccc1C(F)(F)F | Satisfied
Cc1ccc(F)cc1-c1nc(NS(=O)(=O)c2ccc(N)nc2)ccc1Cl | Not satisfied

Exercise: Take the molecule `O=S(=O)(Nc1ccc(Cl)c(-c2ccccc2C(F)(F)F)n1)c1cccc(N[C@@H]2COC[C@H]2O)n1` and say whether its Emax is less than 300%.
Solution: Satisfied

Exercise: What about `Cc1ccc(F)cc1-c1nc(NS(=O)(=O)c2ccnc(N3CC(C)(O)C3)c2)ccc1C(F)(F)F` ?
Solution: Not satisfied

Exercise: What about `Cc1cccc(C)c1-c1nc(NS(=O)(=O)c2cccc(N)n2)cc(C(F)(F)F)c1Cl` ?
Solution: Not satisfied

Exercise: What about `CCC1(C(=O)O)CCN(c2cccc(S(=O)(=O)Nc3ccc(Cl)c(-c4c(C)cccc4C)n3)n2)CC1` ?
Solution: Not satisfied

Exercise: What about `Cc1ccccc1-c1nc(NS(=O)(=O)c2cccc(N3CCC4(CC[C@@H]4N)CC3)n2)ccc1C(F)(F)F` ?
Solution: Not satisfied

Exercise: What about `Cc1cccc(Cl)c1-c1nc(NS(=O)(=O)c2cccc(N)n2)ccc1Cl` ?
Solution: Not satisfied

Exercise: What about Cc1ccc(NS(=O)(=O)c2cccc(N)n2)nc1-c1ccccc1Cl [Example 77, Hydrochloride] ?
Solution: Satisfied

----------
Target: delF508-CFTR (Homo sapiens, UniProt P13569, DEL508-508)
Construct: functional activity of the CFTR channel (Chloride ion transport) in patient derived primary human bronchial epithelial cells; host or cells: patient-derived primary human bronchial epithelial cells (delF508-CFTR)
Assay: Measurement of delF508-CFTR functional activity in primary human bronchial epithelial cells (HBECs) using Multi-Transepithelial Clamp Circuit (MTECC-24) assay
Type: cell-based
Conditions: primary CF HBECs; test compound added 24h before assay plus potentiator; relative to reference combination (2 μM corrector + 0.5 μM potentiator)
Structures can show the parent of a compound that is named as a salt.
property-name: MTECC24 CFHBEC- Amax % (%)
Answers are plain numbers, in %.

compound | test-system | MTECC24 CFHBEC- Amax %, %
Cc1cccc(C)c1-c1nc(NS(=O)(=O)c2cccc(N3CCN[C@H](CO)C3)n2)ccc1C(F)(F)F [Example 173, Hydrochloride] | delF508-CFTR (Homo sapiens, UniProt P13569, DEL508-508) | 61.4

Please state MTECC24 CFHBEC- Amax % for every compound in the list that follows.
1. Cc1ccc(F)cc1-c1nc(NS(=O)(=O)c2cccc(N[C@@H]3COC[C@H]3O)n2)ccc1Cl
2. CC1(C(=O)O)CCN(c2cccc(S(=O)(=O)Nc3ccc(C(F)(F)F)c(-c4cccc(F)c4Cl)n3)n2)CC1
3. Cc1ccccc1-c1nc(NS(=O)(=O)c2cccc(N[C@@H]3CCCNC3)n2)ccc1C(F)(F)F [Example 104, Hydrochloride]
4. Cc1ccccc1-c1nc(NS(=O)(=O)c2cccc(N[C@@H]3CCNC3)n2)ccc1C(F)(F)F [Example 123, Hydrochloride]

Solution:
1. 45.4
2. 63.2
3. 73.4
4. 85.2

Please state MTECC24 CFHBEC- Amax % for every compound in the list that follows.
1. Cc1ccccc1-c1nc(NS(=O)(=O)c2cccc(N3CCC(C(=O)O)CC3)n2)ccc1C(F)(F)F
2. Cc1ccccc1-c1nc(NS(=O)(=O)c2cccc(N3CCC(C)(N)CC3)n2)ccc1C(F)(F)F [Example 110, Hydrochloride]
3. Cc1cccc(C)c1-c1nc(NS(=O)(=O)c2cccc(N)n2)ccc1C(F)(F)F
4. COc1ccc(F)cc1-c1nc(NS(=O)(=O)c2cccc(N)n2)ccc1Cl
5. CC(=O)N1CCN(c2cccc(S(=O)(=O)Nc3ccc(C(F)(F)F)c(-c4cc(F)ccc4C)n3)n2)CC1
6. CC1(C(=O)O)CCN(c2cccc(S(=O)(=O)Nc3ccc(C(F)(F)F)c(-c4ccccc4C4CC4)n3)n2)CC1
7. Cc1ccccc1-c1nc(NS(=O)(=O)c2cccc(N[C@@H]3COCC[C@@H]3O)n2)ccc1C(F)(F)F (single isomer, unassigned)

Solution:
1. 46.7
2. 65.6
3. 75.5
4. 46.1
5. 44.5
6. 55.4
7. 85.9

Please state MTECC24 CFHBEC- Amax % for every compound in the list that follows.
1. CC1(C(=O)O)CCN(c2cccc(S(=O)(=O)Nc3ccc(C(F)(F)F)c(-c4ccccc4N4CCOCC4)n3)n2)CC1
2. Cc1ccccc1-c1nc(NS(=O)(=O)c2cccc(N[C@H]3COCC[C@H]3O)n2)ccc1C(F)(F)F (single isomer, unassigned)

Solution:
1: 65.3; 2: 69.6

All figures here come from patent US11066369B2.
